System: Caco-2 monolayers
experimental.details: in vitro
setup.conditions: Caco-2
# strict inequality: Papp A-B < 4 cm/s x 10-6 yields Condition met, everything else yields Condition not met

Study these solved cases before continuing.
> print(dat)
                                   compound  target.under.test         class.name
1  Cc1cc(=O)[nH]c2cc(NC(=O)[C@H]3O[C@@H](n4cc(C#Cc5cncnc5)c5c(N)ncnc54)[C@H](O)[C@@H]3O)ccc12 [18n]  Caco-2 monolayers  Condition not met
2  Nc1ncnc2c1ncn2[C@@H]1O[C@H](C(=O)Nc2ccc3c(C(F)(F)F)cc(=O)oc3c2)[C@@H](O)[C@H]1O [12m]  Caco-2 monolayers  Condition not met
3  Cc1cc(=O)[nH]c2cc(N(C)C(=O)[C@H]3O[C@@H](n4cc(C#Cc5cncnc5)c5c(N)ncnc54)[C@H](O)[C@@H]3O)ccc12 [18q]  Caco-2 monolayers      Condition met

Decide: Papp A-B of Cc1cc(=O)[nH]c2cc(NC(=O)[C@H]3O[C@@H](n4cnc5c(N)ncnc54)[C@H](O)[C@@H]3O)ccc12 [12n] strictly below 4 cm/s x 10-6?
Condition not met

Decide: Papp A-B of Cc1cc(=O)oc2cc(NC(=O)[C@H]3O[C@@H](n4cnc5c(N)ncnc54)[C@H](O)[C@@H]3O)ccc12 [12l] strictly below 4 cm/s x 10-6?
Condition met
